- System: HCC 2998
- ASSAY: NCI tumour cell line growth inhibition, 48 h
The source made the active and inactive calls. Cut-off read from the data, not from the text of the source: active = GI50 up to about 1.1 µM and inactive = higher.
Possible outcomes: 1.0 for active, 0.0 for inactive

INSERT INTO assay_data (compound, assigned_class) VALUES
  ('CC(C)C(OC(=O)c1ccc(NCc2cc(O)ccc2O)cc1)C(C)C', 0.0),
  ('CCC(C)c1c(Cl)nc(Cl)nc1Cl (stereo not drawn)', 0.0),
  ('O=[N+]([O-])/C(C(Cl)=C(Cl)Cl)=C(/Nc1ccccc1)Sc1ccccc1', 0.0),
  ('N#CCCN(CCN(C(=O)Nc1ccccc1)c1ccccc1)C(=O)Nc1ccccc1', 0.0),
  ('COc1cc(C(=O)N[C@H]2CCc3cc(OC)c(OC)c(OC)c3-c3ccc(SC)c(=O)cc32)cc(OC)c1OC', 1.0),
  ('C/C(CN1C(=O)c2ccccc2C1=O)=N\NS(=O)(=O)c1ccc(C)cc1', 0.0),
  ('O=C(Nc1nc2ncn(CCI)c2c(=O)[nH]1)c1ccccc1', 0.0),
  ('C=C1C(NC)CCC23CC24CCC2(C)C(C(C)=O)C(O)CC2(C)C4CCC13 (stereo not drawn)', 0.0),
  ('CC(C)(C)NC(=S)N/N=C/c1ccccn1', 0.0),
  ('Oc1ccc2occ3c2c1CCC3', 0.0),
  ('CCCOC(=O)c1cc(O)c(O)c(O)c1 [PROPYL GALLATE]', 0.0),
  ('NC(Cn1ccc(=O)c(O)c1)C(=O)O (stereo not drawn)', 0.0),
  ('O=C1CSc2sc(=S)sc2S1', 0.0);

====

Listing: GI50 of selected molecules
- System: OVCAR-3
- ASSAY: NCI tumour cell line growth inhibition, 48 h
The source made the active and inactive calls. No stated cut-off is given here; in the data, active = GI50 up to about 1.1 µM and inactive = higher.
REPORTED_PROPERTY: GI50

INSERT INTO assay_data (molecule, study_system, test_value) VALUES
  ('C1#Cc2ccccc2OCCOc2ccccc2C#Cc2ccccc2OCCOc2ccccc21', 'OVCAR-3', '14 µM (inactive)'),
  ('BrC(=C(c1ccc(OC2CCCCO2)cc1)c1ccc(OC2CCCCO2)cc1)c1ccccc1 (stereo not given)', 'OVCAR-3', '> 100 µM (inactive)'),
  ('O=C(Nc1nc2ncn(CCNCc3ccccc3)c2c(=O)[nH]1)c1ccccc1', 'OVCAR-3', '> 100 µM (inactive)'),
  ('C/C(=N/N(C=O)C[n+]1ccccc1)C(CN(CC(C)C)CC(C)C)C(=O)Nc1ccc(C)cc1C (stereo not given)', 'OVCAR-3', '> 100 µM (inactive)'),
  ('S=c1nc(Nc2ccc(Br)cc2)c2c3c(sc2[nH]1)CN(N1CCc2c(sc4[nH]c(=S)nc(Nc5ccc(Br)cc5)c24)C1)CC3', 'OVCAR-3', '25.1 µM (inactive)');

====

- System: HOP-18
- ASSAY: NCI tumour cell line growth inhibition, 48 h
Active and inactive are the calls of the source. Cut-off read from the data, not from the text of the source: active = GI50 up to about 1.1 µM and inactive = higher.
Possible outcomes: active, inactive

INSERT INTO assay_data (compound, assigned_class) VALUES
  ('Cc1cc2c(=O)cc(-c3ccc(Cl)c(Cl)c3)oc2c(C(=O)O)c1C', 'inactive'),
  ('O=C1C(c2ccc(C3=[N+]([O-])c4cc([N+](=O)[O-])ccc4C3=O)cc2)=[N+]([O-])c2cc([N+](=O)[O-])ccc21', 'inactive'),
  ('C/C(CN1C(=O)c2ccccc2C1=O)=N\NS(=O)(=O)c1ccc(C)cc1', 'inactive'),
  ('CC(=O)OCC1=C(COC(C)=O)C(=O)c2c(O)ccc(O)c2C1=O', 'inactive'),
  ('COc1cc2c(c(O)c1C)C(=O)C(Cl)=CC2=O', 'inactive'),
  ('CCOC(=O)C1=C(Nc2ccc(Cl)c(Cl)c2)OC/C1=N\NS(=O)(=O)c1ccc(C)cc1', 'inactive'),
  ('O=C1CN(C(=O)c2ccccc2)Cc2[nH]c3ccccc3c21', 'inactive'),
  ('COC(COC(N)=O)C1=C(N2CC2)C(=O)C(C)=C(N2CC2)C1=O (stereo not given) [CARBOQUONE]', 'active'),
  ('CC1=[N+]([O-])c2ccccc2C(=O)C1=O', 'inactive'),
  ('Cc1[nH]c(=O)[nH]c(=O)c1/C=C/C(=O)NC(CO)C[S+]([O-])C[S+](C)[O-] (stereo not given)', 'inactive');
